target: His-tagged human recombinant DDR-2 kinase domain (His-TEV-DDR2 467-855 aa) (Homo sapiens); construct: His-TEV-DDR2 467-855 aa; test: Autophosphorylation assay for biochemical activity testing of DDR2 (HTRF); conditions: Table 6; 4 nM DDR2 kinase domain, 150 μM ATP
We begin with a simple list: items and their reported pIC50.
Just so you know, pIC50 here is -log10 of the concentration in molar units; reply with that number alone.

Check out these entries, answers already filled in.
INSERT INTO results (compound, assay_endpoint, assay_value) VALUES
  ('CNC(=O)c1cc(Oc2ccc(OCC(=O)Nc3cc(C(F)(F)F)cn(C)c3=O)cc2)ccn1', 'pIC50', 6.24),
  ('CNC(=O)c1cc(Oc2ccc(CCC(=O)Nc3ccc(Cl)c(C(F)(F)F)c3)cc2C)ccn1', 'pIC50', 5.80);

Enquiry: Return reported pIC50 for target or system His-tagged human recombinant DDR-2 kinase domain (His-TEV-DDR2 467-855 aa) (Homo sapiens), item CNC(=O)c1cc(Oc2ccc(C(O)CC(=O)Nc3ccc(Cl)c(C(F)(F)F)c3)cc2C)ccn1 (stereo not drawn) .
Return: 4.68

====

target: HEK293 transfected with human DDR2 (Homo sapiens, UniProt Q16832); construct: expressed in transfected cells; host or cells: HEK293 (PLT460F_(DDR2)-P7-1); assay: Phospho-DDR2 cellular assay (collagen II induced DDR2 phosphorylation, ELISA); format: cell-based; details: cellular phospho-DDR2; read-out: IC50 [p-DDR2]
Assay Endpoint: IC50 (nM)
Give a bare numeral; the unit nM is implied.

Examples with their reported IC50 follow.
INSERT INTO measurements (compound_smiles, assay_value) VALUES
  ('CNC(=O)c1cc(Oc2ccc(CNC(=O)Nc3cc(C(F)(F)F)ccc3OCC(C)(C)N)cc2)ccn1', 95),
  ('CNC(=O)c1cc(Oc2ccc(CNC(=O)Nc3cc(Cl)ccc3OC)cc2F)ccn1', 19),
  ('CNC(=O)c1cc(Oc2ccc(CNC(=O)Nc3ccc(C)cc3CO)cc2C)ccn1', 17600),
  ('CNC(=O)c1cc(Oc2ccc(CNC(=O)Nc3cc(C(F)(F)F)ccc3CCN)cc2)ccn1', 1300),
  ('CNC(=O)c1cc(Oc2ccc(CNC(=O)Nc3cc(C(F)(F)F)c(Cl)cc3OC3CCNCC3)cc2)ccn1', 24),
  ('CNC(=O)c1cc(Oc2ccc(CNC(=O)Nc3cc(C(F)(F)F)ccc3-n3ccnc3)cc2)ccn1', 9400),
  ('CNC(=O)c1cc(Oc2ccc(CNC(=O)Nc3cc(Cl)c(C)cc3OCC(C)(C)N)cc2)ccn1', 175);

The record that follows has no IC50 shown yet.
Enquiry: Output IC50 of CNC(=O)c1cc(Oc2ccc(CNC(=O)Nc3ccc(N4CCOCC4=O)c(Cl)c3)cc2)ccn1
Return: 8800

====

Biological target: HEK293 transfected with human DDR2 (Homo sapiens, UniProt Q16832)
Construct: expressed in transfected cells; host or cells: HEK293 (PLT460F_(DDR2)-P7-1)
Sequence (Q16832 22-855): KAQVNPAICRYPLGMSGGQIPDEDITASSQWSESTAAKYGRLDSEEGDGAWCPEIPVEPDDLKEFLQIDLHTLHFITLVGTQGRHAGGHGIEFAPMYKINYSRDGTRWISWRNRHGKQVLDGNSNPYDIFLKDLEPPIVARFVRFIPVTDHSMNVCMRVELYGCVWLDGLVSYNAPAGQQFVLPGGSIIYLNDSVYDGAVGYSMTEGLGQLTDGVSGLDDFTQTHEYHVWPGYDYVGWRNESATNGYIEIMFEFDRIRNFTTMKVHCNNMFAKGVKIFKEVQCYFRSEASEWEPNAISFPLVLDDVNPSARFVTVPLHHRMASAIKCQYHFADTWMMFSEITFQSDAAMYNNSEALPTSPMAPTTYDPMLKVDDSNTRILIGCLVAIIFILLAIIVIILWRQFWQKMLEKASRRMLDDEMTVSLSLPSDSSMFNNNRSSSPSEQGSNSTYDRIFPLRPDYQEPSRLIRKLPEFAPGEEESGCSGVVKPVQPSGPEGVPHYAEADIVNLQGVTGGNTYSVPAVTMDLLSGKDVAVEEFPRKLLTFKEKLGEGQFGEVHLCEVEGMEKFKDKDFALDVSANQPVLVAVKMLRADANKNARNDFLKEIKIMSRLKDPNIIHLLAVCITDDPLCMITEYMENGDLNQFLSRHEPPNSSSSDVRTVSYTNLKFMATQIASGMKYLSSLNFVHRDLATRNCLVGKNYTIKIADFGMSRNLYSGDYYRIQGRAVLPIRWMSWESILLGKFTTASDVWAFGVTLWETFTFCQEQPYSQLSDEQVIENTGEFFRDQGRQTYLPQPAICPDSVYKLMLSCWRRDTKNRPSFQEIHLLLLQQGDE
Experiment: Phospho-DDR2 cellular assay (collagen II induced DDR2 phosphorylation, ELISA)
Type: cell-based
Conditions: cellular phospho-DDR2; read-out: IC50 [p-DDR2]
Assay Endpoint: pIC50
Schema: pIC50 number; meaning minus log10 of the concentration expressed in molar units.

INSERT INTO results (compound, target_of_assay, assay_endpoint, assay_value) VALUES
  ('CNC(=O)c1cc(Oc2ccc(C(C)NC(=O)Nc3ccc(Cl)c(Cl)c3)cc2)ccn1 (centres unmarked)', 'HEK293 transfected with human DDR2 (Homo sapiens, UniProt Q16832)', 'pIC50', 5.74),
  ('CNC(=O)c1cc(Oc2ccc(CNC(=O)Nc3cc(Cl)ccc3OC)cc2C)ccn1', 'HEK293 transfected with human DDR2 (Homo sapiens, UniProt Q16832)', 'pIC50', 7.60),
  ('CNC(=O)c1cc(Oc2ccc(CNC(=O)Nc3ccc(Cl)c(C)c3)cc2)ccn1', 'HEK293 transfected with human DDR2 (Homo sapiens, UniProt Q16832)', 'pIC50', 6.76),
  ('CNC(=O)c1cc(Oc2ccc(CNC(=O)Nc3cc(C(F)(F)F)ccc3OCC3CCCN3)cc2)ccn1 (centres unmarked)', 'HEK293 transfected with human DDR2 (Homo sapiens, UniProt Q16832)', 'pIC50', 7.80),
  ('CNC(=O)c1cc(Oc2ccc(CNC(=O)Nc3cc(C(F)(F)F)ccc3CN3CCNCC3)cc2)ccn1', 'HEK293 transfected with human DDR2 (Homo sapiens, UniProt Q16832)', 'pIC50', 5.94);

Enquiry: Report measured pIC50; entry is CNC(=O)c1cc(Oc2ccc(CNC(=O)Nc3ccc(OC)c(Cl)c3)cc2)ccn1
Return: 7.19

Enquiry: Fill in pIC50 for record CNC(=O)c1cc(Oc2ccc(CNC(=O)Nc3cc(C(F)(F)F)ccc3OCCN3CCNCC3)cc2)ccn1
Return: 7.33

Enquiry: Input CNC(=O)c1cc(Oc2ccc(CNC(=O)Nc3cc(C(C)(C)C)n[nH]3)cc2)ccn1 , output reported pIC50.
Return: 5.10
